assay: Rancimat accelerated autooxidation of lipids by air, soyabean oil; settings: antioxidative index = IP(with test solution)/IP(control sample)
# reported AOl in Soyabean oil at 100° C. containing 0.05% test substance; entries follow

In the examples that follow, each entry is paired with its recorded AOl in Soyabean oil at 100° C. containing 0.05% test substance.
[[record]]
molecule = "Cc1cc(C(C)(C)C)c(O)c(C(C)(C)C)c1 [Dibutylhydroxytoluene, reference compound]"
result = 4.8

[[record]]
molecule = "CC(C)(C)c1ccc2nc(NN)sc2c1"
result = 6

[[record]]
molecule = "Cc1c(C)c2c(c(C)c1O)CC[C@@](C)(CCC[C@H](C)CCC[C@H](C)CCCC(C)C)O2 [α-Tocopherol, reference compound]"
result = 5.1

[[record]]
molecule = "O=C1O[C@H]([C@@H](O)CO)C(O)=C1O [Vitamin C, reference compound]"
result = 1.2

[[record]]
molecule = "COc1ccc2nc(NN)sc2c1 [6-Methoxy-2-hydrazino-1,3-benzothiazole]"
result = 24

[[record]]
molecule = "NNc1nc(-c2ccccc2)cs1 [2-Hydrazino-4-phenyl-1,3-thiazole]"
result = 8.5

[[record]]
molecule = "NNc1nc2ccccc2s1 [2-Hydrazino-1,3-benzothiazole]"
result = 17

[[record]]
molecule = "NNc1nnc(-c2ccc(F)cc2)s1"
result = 15

[[record]]
molecule = "Cc1ccc2nc(NN)sc2c1 [6-Methyl-2-hydrazino-1,3-benzothiazole]"
result = 2.4


Tell me the measured AOl in Soyabean oil at 100° C. containing 0.05% test substance of `COc1cc2nc(NN)sc2cc1OC` , please. 4.1
